test: in vitro; conditions: human, HK cells (human keratinocytes)
Where a SMILES comes first, the peptide text is derived from it.

{"Compound": "CC[C@H](C)[C@H](NC(=O)[C@H](CCCCN)NC(=O)[C@H](CCCCN)NC(=O)[C@H](Cc1ccccc1)NC(=O)[C@H](CC(C)C)NC(=O)[C@H](CCCCN)NC(=O)[C@H](CCCCN)NC(=O)[C@H](CC(C)C)NC(=O)[C@H](CCCNC(=N)N)NC(=O)[C@H](CCCCN)NC(=O)[C@@H](N)Cc1ccccc1)C(=O)N[C@@H](Cc1c[nH]c2ccccc12)C(=O)N[C@@H](CC(N)=O)C(=O)N[C@@H](Cc1c[nH]c2ccccc12)C(=O)N[C@@H](CCCCN)C(=O)O [HPA3NT3] (H-FKRLKKLFKKIWNWK-OH)", "viability at 24 h, 3.2 µM (%)": 100}
